Origin of the recorded values: patent US20200040059A1

Target: T1, CD96 (UniProt P40200)
T1 sequence (looked up): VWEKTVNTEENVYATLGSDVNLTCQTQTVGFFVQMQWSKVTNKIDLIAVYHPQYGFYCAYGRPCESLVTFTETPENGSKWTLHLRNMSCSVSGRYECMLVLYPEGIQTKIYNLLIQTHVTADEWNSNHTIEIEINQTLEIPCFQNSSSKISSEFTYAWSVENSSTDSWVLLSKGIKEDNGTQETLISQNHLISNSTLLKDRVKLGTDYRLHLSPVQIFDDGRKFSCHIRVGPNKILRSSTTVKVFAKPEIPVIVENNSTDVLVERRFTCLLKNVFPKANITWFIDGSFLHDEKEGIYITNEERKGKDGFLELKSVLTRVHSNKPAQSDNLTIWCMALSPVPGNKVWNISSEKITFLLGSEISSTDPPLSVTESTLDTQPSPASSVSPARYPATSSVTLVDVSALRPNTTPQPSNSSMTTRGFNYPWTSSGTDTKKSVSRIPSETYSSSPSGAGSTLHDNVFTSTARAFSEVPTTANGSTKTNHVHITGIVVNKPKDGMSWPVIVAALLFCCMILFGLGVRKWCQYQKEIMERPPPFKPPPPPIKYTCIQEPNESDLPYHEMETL
Assay: flow cytometry, CD96-expressing cells
measurementType: MFI at 11.1 nM (MFI)
Please give a number only; it is taken to be in MFI.

binder	recordedNumber
CD155 variant IgV-Fc V9I, V10I, P18S, F20S, T45A, L79P, F91S, L104M, F108Y, G111R, S112V (Fc fusion, not shown: a dimerising Fc or GST; small tags and cut ends) WPPPGTGDIIVQAPTQVSGSLGDSVTLPCYLQVPNMEVTHVSQLAWARHGESGSMAVFHQTQGPSYSESKRLEFVAARPGAELRNASLRMSGLRVEDEGNYTCMFVTYPQRVRSVDIWL	974
CD155 variant IgV-Fc P18T, M36T, S65A, S67E, L79Q, A81T, F91S, G111R (Fc fusion, not shown: a dimerising Fc or GST; small tags and cut ends) PGTGDVVVQAPTQVTGFLGDSVTLPCYLQVPNTEVTHVSQLTWARHGESGSMAVFHQTQGPAYEESKRLEFVAARQGTELRNASLRMSGLRVEDEGNYTCLFVTFPQRSRSVDIWL	963
CD155 variant IgV-Fc P18L, K70E, L79P, F91S, V95A, G111R (Fc fusion, not shown: a dimerising Fc or GST; small tags and cut ends) WPPPGTGDVVVQAPTQVLGFLGDSVTLPCYLQVPNMEVTHVSQLTWARHGESGSMAVFHQTQGPSYSESERLEFVAARPGAELRNASLRMSGLRAEDEGNYTCLFVTFPQRSRSVDIWL	973
CD155 variant IgV-Fc V11A, P18S, L79P, F91S, L104M, G111R (Fc fusion, not shown: a dimerising Fc or GST; small tags and cut ends) PGTGDVVAQAPTQVSGFLGDSVTLPCYLQVPNMEVTHVSQLTWARHGESGSMAVFHQTQGPSYSESKRLEFVAARPGAELRNASLRMSGLRVEDEGNYTCMFVTFPQRSRSVDIWL	923

I am curious: what MFI at 11.1 nM value has been reported for CD155 variant IgV-Fc V9L, P18S, Q60R, V75L, L79P, R89K, F91S, L104E, G111R (Fc fusion, not shown: a dimerising Fc or GST; small tags and cut ends) PGTGDLVVQAPTQVSGFLGDSVTLPCYLQVPNMEVTHVSQLTWARHGESGSMAVFHRTQGPSYSESKRLEFLAARPGAELRNASLKMSGLRVEDEGNYTCEFVTFPQRSRSVDIWL ? 959
